# reported koff; entries follow
Target: T1, AMHR-II/Fc fusion protein (human, UniProt Q16671 18-149, limits assumed)
T1 construct: also called AMHR-II recombinant receptor expressed in the form of fusion protein with a region Fc; recombinant target; not shown: Fc region
T1 sequence (Q16671 18-149 limits assumed): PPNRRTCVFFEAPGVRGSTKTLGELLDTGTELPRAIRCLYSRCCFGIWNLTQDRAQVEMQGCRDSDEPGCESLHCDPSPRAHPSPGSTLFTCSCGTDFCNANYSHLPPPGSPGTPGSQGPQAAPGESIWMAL
Assay: SPR, BIAcore X100; AMHR-II/Fc immobilised on CM5 chip, antibody injected; 25 C
Description: The affinity of the antibodies for their antigen, AMHR-II, is determined by the SPR (Surface Plasmon Resonance) technique on BIACore X100 (BIACore, GE Healthcare). […] All the measurements are carried out at 25° C. The antibodies to be analysed are diluted in HBS-EP running buffer (BIACore, GE Healthcare) at concentrations from 6.25 to 3333 nM and injected on the sensor chip for 2 min at a flow of 30 μl/min. […]
Express it in s⁻¹; write the number only.

mutated humanized 12G4 antibody 6B-78 produced in CHO (antibody, human IgG1, kappa, V domains shown, also called 6B_78 CHO) VH: QVQLVQSGAEVKKPGASVKVSCKASGYTFTSYHIHWVRQAPGQRLEWMGWIYPGDDSTKYSQKFQGRVTITRDTSASTAYMELSSLRSEDTAVYYCTRGDRFAYWGQGTLVTVSS VL: DIQMTQSPSTLSASVGDRVTITCRASSSVRYIAWYQQKPGKAPKLLIYSTSSLKSGVPSRFSGSGSGTEFTLTISSLQPDDFATYYCLQWSSYPWTFGGGTKVEIKR
0.0012
mutated humanized 12G4 antibody 3C-23 produced in YB2/0 (antibody, human IgG1, kappa, V domains shown, Chains without leader; Mutations VH-Q3R, VL-I177T/S179P; also called 3C_23 YB2/0; R901 3C23) VH: QVRLVQSGAEVKKPGASVKVSCKASGYTFTSYHIHWVRQAPGQRLEWMGWIYPGDDSTKYSQKFQGRVTITRDTSASTAYMELSSLRSEDTAVYYCTRGDRFAYWGQGTLVTVSS VL: DIQMTQSPSTLSASVGDRVTITCRASSSVRYIAWYQQKPGKAPKLLTYPTSSLESGVPSRFSGSGSGTEFTLTISSLQPDDFATYYCLQWSSYPWTFGGGTKVEIKR
0.0033

Now for the binder whose koff we want.
Exercise: koff lookup needed for chimeric 12G4 monoclonal antibody (antibody, V domains shown, Variable regions without leader joined to the human constant regions; also called 12G4-Chimeric; unmutated chimeric 12G4 antibody) VH: QVQLQQSGPELVKPGASVRMSCKASGYTFTSYHIHWVKQRPGQGLEWIGWIYPGDDSTKYNEKFKGKTTLTADKSSSTAYMLLSSLTSEDSAIYFCTRGDRFAYWGQGTLVTVSA VL: QIVLTQSPAIMSASLGEGITLTCSASSSVRYIHWYQQKSGTSPKLLIYSTSNLASGVPSRFSGSGSGTFHSLTISSVEAEDAADYYCLQWSSYPWTFGGGTKLEIKR , thanks.
Solution: 0.00074
